Target: human ether-à-go-go-related gene (hERG) potassium channel (human, UniProt Q12809);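 also: peak tail current of the secondary pulse compared with the same well before compound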
Sequence (Q12809 whole entry, looked up): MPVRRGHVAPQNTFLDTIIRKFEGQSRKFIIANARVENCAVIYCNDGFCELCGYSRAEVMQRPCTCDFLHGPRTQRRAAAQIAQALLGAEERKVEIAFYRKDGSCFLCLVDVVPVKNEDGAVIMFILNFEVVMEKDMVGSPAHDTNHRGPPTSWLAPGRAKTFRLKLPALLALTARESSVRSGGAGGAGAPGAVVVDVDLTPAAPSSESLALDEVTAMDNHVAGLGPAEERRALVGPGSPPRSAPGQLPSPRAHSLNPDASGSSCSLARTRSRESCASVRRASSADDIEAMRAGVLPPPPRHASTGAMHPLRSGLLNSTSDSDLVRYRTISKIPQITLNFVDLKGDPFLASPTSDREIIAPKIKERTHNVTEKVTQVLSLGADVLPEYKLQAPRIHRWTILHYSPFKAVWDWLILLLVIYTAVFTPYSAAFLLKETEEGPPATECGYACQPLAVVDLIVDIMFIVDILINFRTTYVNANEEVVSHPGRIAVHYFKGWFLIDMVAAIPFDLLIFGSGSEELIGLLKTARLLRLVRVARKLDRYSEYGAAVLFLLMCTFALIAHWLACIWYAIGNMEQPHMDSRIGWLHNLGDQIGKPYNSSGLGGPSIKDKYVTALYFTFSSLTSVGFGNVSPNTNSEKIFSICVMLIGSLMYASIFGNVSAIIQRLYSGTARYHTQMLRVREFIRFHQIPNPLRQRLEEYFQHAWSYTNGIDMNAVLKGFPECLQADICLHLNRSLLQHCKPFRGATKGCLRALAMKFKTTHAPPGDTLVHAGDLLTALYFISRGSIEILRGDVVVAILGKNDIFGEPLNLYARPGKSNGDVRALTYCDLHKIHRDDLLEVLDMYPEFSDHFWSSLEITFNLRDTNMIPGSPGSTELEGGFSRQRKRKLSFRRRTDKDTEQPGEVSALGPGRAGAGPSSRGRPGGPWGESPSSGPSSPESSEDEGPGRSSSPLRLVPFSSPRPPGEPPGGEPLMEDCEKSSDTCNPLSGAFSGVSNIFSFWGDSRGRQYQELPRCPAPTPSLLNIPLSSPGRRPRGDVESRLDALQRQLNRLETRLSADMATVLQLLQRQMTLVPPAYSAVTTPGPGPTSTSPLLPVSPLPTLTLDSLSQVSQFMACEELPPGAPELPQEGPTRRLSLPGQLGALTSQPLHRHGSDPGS
Experiment: primary screen, population patch clamp on CHO cells stably expressing hERG; higher = less effect of the substance
The whole screen tested about 310,000 compounds, of which about 14,000 (4.5%) showed an effect of 50% or more. Effects have a minus sign here. Many of the other results were omitted from the sample, so strong results are more common in it than they were.
Each record here notes measured hERG current change (%, negative = inhibition) at 10uM.
MEASURE: hERG current change (%, negative = inhibition) at 10uM (%)

COMPOUND: OC(COC1CCCCC1)CN1CCN(c2ccccc2)CC1 (stereo not drawn)
OBSERVED_RESULT: -29.8
//
COMPOUND: CC(Oc1ccccc1)C(=O)Nc1cccc([N+](=O)[O-])c1 (stereo not drawn)
OBSERVED_RESULT: -22
//
COMPOUND: COc1cccc(OC)c1OCC(O)CN1CCN(c2ccccc2)CC1.Cl (stereo not drawn)
OBSERVED_RESULT: -33.3
//
COMPOUND: Cc1ccc(OCc2nnc(SCc3ccc(C#N)cc3)n2-c2ccc(C)cc2)cc1
OBSERVED_RESULT: -29.6
//
COMPOUND: COc1ccc(-n2c(COc3ccc(Cl)cc3)nnc2SCc2ccc(C#N)cc2)cc1
OBSERVED_RESULT: 0.977
//
COMPOUND: O=C(N1CCCCC1)N1CCN(S(=O)(=O)c2cccc([N+](=O)[O-])c2)CC1
OBSERVED_RESULT: -15.8
//
COMPOUND: CCn1c(COc2ccccc2)nnc1SCC(=O)C(C)(C)C
OBSERVED_RESULT: -14.2
//
COMPOUND: Cc1nc2ccc([N+](=O)[O-])cc2c(=O)n1Cc1ccc([N+](=O)[O-])cc1
OBSERVED_RESULT: -76.8
//
COMPOUND: Cn1c(SCC(=O)Nc2nc3ccccc3s2)nnc1-c1ccccc1
OBSERVED_RESULT: 10.3
//
COMPOUND: CC(=O)Nc1cccc(C(=O)Nc2ccccc2C(=O)O)c1
OBSERVED_RESULT: 7.39
//
COMPOUND: O=C(Nc1cccc2ncccc12)c1cccnc1
OBSERVED_RESULT: 14.5
//
COMPOUND: Cc1ccc(N2CCN(CC(O)COC3CCCCC3)CC2)cc1 (stereo not drawn)
OBSERVED_RESULT: -56.1
//
COMPOUND: Cc1c(C=O)c2ccccc2n1Cc1ccccc1
OBSERVED_RESULT: -2.16
//
COMPOUND: Cc1nc(C)n(CCNC(=O)c2ccco2)n1
OBSERVED_RESULT: 27
//
COMPOUND: Cc1c(C=O)c2ccccc2n1Cc1ccc([N+](=O)[O-])cc1
OBSERVED_RESULT: -78.1
//
COMPOUND: CC(C)(C)C1CCC(OCC(O)CN2CCN(c3ccccc3)CC2)CC1.Cl (stereo not drawn)
OBSERVED_RESULT: 1.42
//
COMPOUND: COc1ccc(Cl)cc1N(CC(=O)Nc1ccc2c(c1)OCO2)S(C)(=O)=O
OBSERVED_RESULT: -24
//
COMPOUND: CCn1c(SCC(=O)Nc2ccc3c(c2)OCO3)nnc1-c1ccccc1O
OBSERVED_RESULT: 7.21
//
COMPOUND: O=C(NCCN1CCCCC1)c1ccco1
OBSERVED_RESULT: 7.02
//
COMPOUND: COc1cccc(-c2nn[nH]n2)c1O
OBSERVED_RESULT: 9.02
//
COMPOUND: Cc1ccc2sc(N3CCN(CCNC(=O)c4ccco4)CC3)nc2c1C.Cl
OBSERVED_RESULT: -58.2
//
COMPOUND: COc1ccccc1-c1sc2cc3c(cc2c1C#Cc1ccccn1)OCO3
OBSERVED_RESULT: 8.78
//
COMPOUND: Cc1ccc(OCC(O)CN2CCN(CC(O)COc3ccc(C)cc3)CC2)cc1 (stereo not drawn)
OBSERVED_RESULT: -63.9
//
COMPOUND: Fc1c(F)c(C(F)(F)F)c(F)c(F)c1N/N=C\c1cccs1
OBSERVED_RESULT: 15.5
//
COMPOUND: CCn1c(=O)c2ccccc2n(Cc2cccc([N+](=O)[O-])c2)c1=O
OBSERVED_RESULT: 15.3
//
COMPOUND: CCOc1ccc(CCNC(=O)COC(=O)c2ccc(S(=O)(=O)N3CCCC3)cc2)cc1OCC
OBSERVED_RESULT: 25.7
//
COMPOUND: CC(NC(=O)CN(C)S(=O)(=O)c1ccc(F)cc1)C1CC2CCC1C2 (stereo not drawn)
OBSERVED_RESULT: -2.34
//
COMPOUND: COc1ccc(C(=O)N(C)Cc2cnn(Cc3ccccc3)c2)cc1S(=O)(=O)N1CCOCC1
OBSERVED_RESULT: -27
//
COMPOUND: COc1ccc(-n2c(COc3ccccc3)nnc2SCc2ccc(C#N)cc2)cc1
OBSERVED_RESULT: -39.4
//
COMPOUND: Cc1ccc(OCC(O)CN2CCCC2)cc1 (stereo not drawn)
OBSERVED_RESULT: 11.5
//
COMPOUND: Cc1nc2ccccc2c(=O)n1Cc1ccc([N+](=O)[O-])cc1
OBSERVED_RESULT: -74.4
//
COMPOUND: CCn1c(=O)c2ccccc2n(Cc2cccc(C)c2)c1=O
OBSERVED_RESULT: 3.93
//
COMPOUND: CCn1c(COc2ccccc2)nnc1SCc1ccc(C#N)cc1
OBSERVED_RESULT: -54.1
//
COMPOUND: Cc1ccc(N2CCN(CC(O)COc3ccccc3)CC2)cc1 (stereo not drawn)
OBSERVED_RESULT: -50.9
//
COMPOUND: O=C(NCCCN1CCCCCC1)c1ccc(N2CCCC2=O)cc1
OBSERVED_RESULT: 16.4
//
COMPOUND: O=C(COC(=O)c1cccnc1Cl)Nc1ccc2c(c1)OCO2
OBSERVED_RESULT: 2.28
//
COMPOUND: COC(=O)CSc1nnc2n1C(C)(C)Cc1ccccc1-2
OBSERVED_RESULT: 3.46
//
COMPOUND: CC(=O)N1N=C2C3CCN(CC3)C2C1c1ccc(Br)cc1 (stereo not drawn)
OBSERVED_RESULT: 4.62
//
COMPOUND: CCSc1nnc2n1C(C)(C)Cc1ccccc1-2
OBSERVED_RESULT: 0.0135
//
COMPOUND: O=C(COC(=O)c1ccccn1)Nc1ccc2c(c1)OCO2
OBSERVED_RESULT: -65.5
//
COMPOUND: COc1ccccc1-n1cnnc1SC(C)C(=O)Nc1cccc([N+](=O)[O-])c1 (stereo not drawn)
OBSERVED_RESULT: -8.19
//
COMPOUND: Cc1ccc(OCC(O)CN2CCN(c3ccccc3)CC2)cc1 (stereo not drawn)
OBSERVED_RESULT: -38.6
